// provenance: patent US20150232562A1

The entries below are paired with their reported % blocking of Herceptin binding.
biological target: T1, Epidermal Growth Factor Receptor 2 (HER2) (human, UniProt P04626 23-1255); assay: FMAT competition on SKBR3 cells, periplasmic extract
T1 construct: whole, on cells; the cell line is named under assay; also called ErbB-2; ERBB2

13B2 (VHH, C-term myc-His6 tag) VHH: EVQLVESGGSLVQPGGSLRLSCAASGFTFDDYAMSWVRQAPGKGLEWISSINWSGTHKDYADSVKGRFTISRNNANNTLYLQMNNLKFEDTAVYYCAKNWRDAGTTWFEKSGSAGQGTQVTVSS : > 90%

Now let's try a different one.
[in] Supply measured % blocking of Herceptin binding of 15C11 (VHH, C-term myc-His6 tag) VHH: EVQLVESGGGLVQPGGSLRLSCVASGFSLDDYGMTWVRQAPGKGLEWVSSINWSGTHTDYADSVKGRFTISRDNAKNTLFLQMNSLTPEDTAVYYCNQGWKILPAERRGHGTPVTVSS in your reply.
[out] > 90%
